The origin of these recorded values is ChEMBL document CHEMBL1127540.

Ki overview
TGT: Human immunodeficiency virus type 1 protease (Human immunodeficiency virus 1)
PROTOCOL TEXT: Binding affinity to HIV-1 protease
Field format: number, assumed nM, no unit text.

GET /values?item= `CC[C@H](C)[C@H](NC(=O)[C@H](Cc1ccccc1)NC(=O)C[C@H](O)[C@H](Cc1ccccc1)NC(=O)OC(C)(C)C)C(=O)N[C@@H](Cc1ccccc1)C(=O)OC` &system= Human immunodeficiency virus type 1 protease (Human immunodeficiency virus 1) returns Ki: 0.603

GET /values?item= `CC(C)(C)OC(=O)N[C@@H](Cc1ccccc1)[C@H](O)[C@H](O)[C@H](Cc1ccccc1)NC(=O)OC(C)(C)C` &system= Human immunodeficiency virus type 1 protease (Human immunodeficiency virus 1) returns Ki: 12

GET /values?item= `CC(C)[C@H](NC(=O)OCc1ccccc1)C(=O)N[C@@H](Cc1ccccc1)[C@@H](O)[C@H](O)[C@H](Cc1ccccc1)NC(=O)OCc1ccccc1` &system= Human immunodeficiency virus type 1 protease (Human immunodeficiency virus 1) returns Ki: 0.219
